Every entry's value here was drawn from PubChem BioAssay AID2060499.

So I've got a bunch of molecules here, and I need their viability, T/C values.
System: 777334-354-R2-J4-PDC tumor spheroids with HUVEC/MSC, viability;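 further: spheroids exposed to compounds for 7 days before readout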
Assay: Anticancer human tumor 777334-354-R2-J4-PDC patient-derived pancreatic adenocarcinoma cell line growth inhibition [GQUAD]
Conditions: second compound 0.1 µM; first compound 1 µM; stronger effect = lower value
Give just the numeric value; % need not be written.

Report viability, T/C, nothing else, for this molecule: C=CC(=O)N1CCN(c2nc(=O)n(-c3c(C)ccnc3C(C)C)c3nc(-c4c(O)cccc4F)c(F)cc23)C(C)C1 (centres undefined) + CN(C)c1ccc(Nc2c3ccc(NC(=O)CCN4CCCC4)cc3nc3cc(NC(=O)CCN4CCCC4)ccc23)cc1
128

Report viability, T/C, nothing else, for this molecule: Cc1cccc(N(C)C(=O)C2C(O)CCN2c2nc(C)cc(C(F)(F)F)c2C#N)c1 (centres undefined) + CN(C)c1ccc(Nc2c3ccc(NC(=O)CCN4CCCC4)cc3nc3cc(NC(=O)CCN4CCCC4)ccc23)cc1
93.1

Report viability, T/C, nothing else, for this molecule: C#Cc1c(F)ccc2cc(O)cc(-c3ncc4c(N5CC6CCC(C5)N6)nc(OCC56CCCN5CC(F)C6)nc4c3F)c12 (centres undefined) + Cc1cnc(CNC(=O)c2c(=O)c3ccc(N4CCCN(C)CC4)nc3n3c2sc2ccccc23)cn1
26.4

Report viability, T/C, nothing else, for this molecule: CC(C)n1c(=O)n(C)c2cnc3cc(F)c(-c4ccc(OCCCN5CCCCC5)nc4)cc3c21 + Cc1[nH]c2ccc(F)cc2c1-c1nc2c3cccnc3c3ncccc3c2[nH]1
103

Report viability, T/C, nothing else, for this molecule: C=CCn1c(=O)c2cnc(Nc3ccc(N4CCN(C)CC4)cc3)nc2n1-c1cccc(C(C)(C)O)n1 + Cc1[nH]c2ccc(F)cc2c1-c1nc2c3cccnc3c3ncccc3c2[nH]1
46.6

Report viability, T/C, nothing else, for this molecule: O=c1[nH]cc(F)c(=O)[nH]1 + Cc1cnc(CNC(=O)c2c(=O)c3ccc(N4CCCN(C)CC4)nc3n3c2sc2ccccc23)cn1
80.1

Report viability, T/C, nothing else, for this molecule: O=c1[nH]cc(F)c(=O)[nH]1 + CN(C)c1ccc(Nc2c3ccc(NC(=O)CCN4CCCC4)cc3nc3cc(NC(=O)CCN4CCCC4)ccc23)cc1
90.7

Report viability, T/C, nothing else, for this molecule: COc1cc(C2c3cc4c(cc3C(OC3OC5COC(C)OC5C(O)C3O)C3COC(=O)C23)OCO4)cc(OC)c1O (centres undefined) + Cc1cnc(CNC(=O)c2c(=O)c3ccc(N4CCCN(C)CC4)nc3n3c2sc2ccccc23)cn1
73.4

Report viability, T/C, nothing else, for this molecule: COc1cccc2c1C(=O)c1c(O)c3c(c(O)c1C2=O)CC(O)(C(=O)CO)CC3OC1CC(N)C(O)C(C)O1 (centres undefined) + Cc1cnc(CNC(=O)c2c(=O)c3ccc(N4CCCN(C)CC4)nc3n3c2sc2ccccc23)cn1
40.7

Report viability, T/C, nothing else, for this molecule: CC(C)n1c(=O)n(C)c2cnc3cc(F)c(-c4ccc(OCCCN5CCCCC5)nc4)cc3c21 + Cc1cnc(CNC(=O)c2c(=O)c3ccc(N4CCCN(C)CC4)nc3n3c2sc2ccccc23)cn1
73.6

Report viability, T/C, nothing else, for this molecule: CC(C)(O)C1CCC(Nc2ccc3ncc(-c4cccc(C(F)(F)F)c4)n3n2)CC1 (centres undefined) + Cc1[nH]c2ccc(F)cc2c1-c1nc2c3cccnc3c3ncccc3c2[nH]1
55

Report viability, T/C, nothing else, for this molecule: CC(=O)O[C@H]1C(=O)[C@@]2(C)[C@H]([C@H](OC(=O)c3ccccc3)[C@]3(O)C[C@H](OC(=O)[C@H](O)[C@@H](NC(=O)c4ccccc4)c4ccccc4)C(C)=C1C3(C)C)[C@]1(OC(C)=O)CO[C@@H]1C[C@@H]2O + Cc1[nH]c2ccc(F)cc2c1-c1nc2c3cccnc3c3ncccc3c2[nH]1
46.4

Report viability, T/C, nothing else, for this molecule: O=C(c1cc(Cc2n[nH]c(=O)c3ccccc23)ccc1F)N1CCN(C(=O)C2CC2)CC1 + Cc1cnc(CNC(=O)c2c(=O)c3ccc(N4CCCN(C)CC4)nc3n3c2sc2ccccc23)cn1
88

Report viability, T/C, nothing else, for this molecule: CC(C)(O)C1CCC(Nc2ccc3ncc(-c4cccc(C(F)(F)F)c4)n3n2)CC1 (centres undefined) + CN(C)c1ccc(Nc2c3ccc(NC(=O)CCN4CCCC4)cc3nc3cc(NC(=O)CCN4CCCC4)ccc23)cc1
47.4
